Here we gather IC50 data for RAF proto-oncogene serine/threonine-protein kinase (Homo sapiens) reported by several publications.

Illustrative cases are given below, each with its answer.
compound=N#Cc1cnc2[nH]cc(C(=O)c3c(F)ccc(NS(=O)(=O)c4cccnc4)c3F)c2c1 test_result="≤ 10 µM"
compound="CCC(C)S(=O)(=O)Nc1ccc(F)c(C(=O)c2c[nH]c3ncc(C#N)cc23)c1F (centres unmarked)" test_result="≤ 10 µM"
compound=O=C(CCCCCCC(=O)Nc1cc(Oc2ccc(NC(=O)Nc3ccc(Cl)c(C(F)(F)F)c3)cc2)ccn1)NO test_result="< 0.1 µM"
compound=Cc1c(NS(C)(=O)=O)cccc1C(=O)c1c[nH]c2ncc(-c3ccccc3)cc12 test_result="≤ 10 µM"
compound=CCCS(=O)(=O)Nc1cccc(C(=O)c2c[nH]c3ncc(OC)cc23)c1F test_result="≤ 10 µM"
compound=COc1cc(Nc2ccnc3[nH]ccc23)cc(OC)c1OC test_result="≤ 10 µM"
compound=O=C(Nc1ccc(Cc2c[nH]c3ncccc23)cc1)Nc1cccc(C(F)(F)F)c1 test_result="≤ 10 µM"
compound=N#Cc1ccnc2[nH]cc(C(=O)c3c(F)ccc(NS(=O)(=O)c4cc(F)ccc4F)c3F)c12 test_result="< 0.01 µM"
compound=COc1ccnc2[nH]cc(C(=O)c3c(F)ccc(NS(=O)(=O)C(C)C)c3F)c12 test_result="≤ 10 µM"
compound=O=C(c1ccc(O)cc1Cl)c1c[nH]c2ncccc12 test_result="≤ 10 µM"

Need IC50 for each of these compounds.
1. COc1cc2ncnc(Oc3ccc(NC(=O)Nc4ccc(Cl)c(C(F)(F)F)c4)cc3)c2c2c1OCCO2
2. Fc1nc(NCc2ccc(N3CCOCC3)nc2)ccc1Cc1c[nH]c2ncncc12
3. Oc1ccc(F)c(Cc2c[nH]c3ncc(Br)cc23)c1F
4. CC(C)(C)c1cc(NC(=O)Nc2ccc(Oc3ncnc4[nH]ncc34)c(F)c2)no1
5. N#Cc1ccnc2[nH]cc(C(=O)c3c(F)ccc(NS(=O)(=O)CCC(F)(F)F)c3F)c12
6. Cc1c(NS(C)(=O)=O)cccc1C(=O)c1c[nH]c2ncc(-c3cccnc3)cc12

["0.2 to 0.5 µM", "≤ 10 µM", "≤ 10 µM", "0.046 µM", "≤ 10 µM", "≤ 10 µM"]

Lab note: need IC50 with RAF proto-oncogene serine/threonine-protein kinase (Homo sapiens) for entry COc1ccc(Cn2nnc(-c3cccc(OCc4csc5c(C(=O)NCCO)cnc(N)c45)c3)n2)cc1 , please look it up.
0.231 µM

---

Here we gather IC50 data for RAF proto-oncogene serine/threonine-protein kinase (Homo sapiens) reported by several publications.

Illustrative cases are given below, each with its answer.
structure_smiles_string=O=C(Nc1ccc(Oc2ncnc3cc(OCCCN4CCOCC4)c4c(c23)OCCO4)c(F)c1)Nc1ccc(Cl)c(C(F)(F)F)c1 test_result="0.5 to 1 µM"
structure_smiles_string=CCCS(=O)(=O)Nc1ccc(Cl)c(C(=O)c2c[nH]c3ncc(Br)cc23)c1F test_result="≤ 10 µM"
structure_smiles_string=COc1ccc(F)c(C(=O)c2c[nH]c3ncc(-c4ccccc4)cc23)c1F test_result="≤ 10 µM"
structure_smiles_string=O=C(c1c(F)ccc(NS(=O)(=O)c2c(F)cccc2F)c1F)c1c[nH]c2ncc(Cl)cc12 test_result="≤ 10 µM"
structure_smiles_string=CCCS(=O)(=O)Nc1ccc(F)c(C(=O)c2c[nH]c3ncc(-c4cnn(C)c4)cc23)c1F test_result="≤ 10 µM"

Need IC50 for each of these compounds.
1. CCCS(=O)(=O)Nc1ccc(F)c(C(=O)c2c[nH]c3ncc(C(F)(F)F)cc23)c1F
2. CCCS(=O)(=O)Nc1cccc(C(=O)c2c[nH]c3ncccc23)c1F
3. O=C(c1c(F)ccc(NS(=O)(=O)CCC(F)(F)F)c1F)c1c[nH]c2nccc(Cl)c12
4. CCCS(=O)(=O)Nc1ccc(F)c(C(=O)c2c[nH]c3ncc(-c4ccc(C(=O)NCC)nc4)cc23)c1F

≤ 10 µM
≤ 10 µM
≤ 10 µM
< 0.01 µM

Need IC50 for each of these compounds.
1. Cc1cnc2[nH]cc(C(=O)c3c(F)ccc(NS(=O)(=O)N(C)C)c3F)c2c1
2. COCCOc1cc2ncnc(Oc3ccc(NC(=O)Nc4ccc(F)cc4F)c(F)c3)c2c2c1OCCO2
3. N#Cc1ccnc2[nH]cc(C(=O)c3c(F)ccc(NS(=O)(=O)C4CCC4)c3F)c12
4. O=C(Nc1ccc(C(=O)c2c[nH]c3ncccc23)cc1)Nc1cccc(C(F)(F)F)c1
5. N#Cc1cnc2[nH]cc(C(=O)c3cccc(NS(=O)(=O)N4CCOCC4)c3F)c2c1
6. COc1ccc(F)c(C(=O)c2c[nH]c3ncc(-c4cccnc4)cc23)c1F

1. ≤ 10 µM
2. > 1 µM
3. ≤ 10 µM
4. ≤ 10 µM
5. ≤ 10 µM
6. ≤ 10 µM

Find the recorded IC50 belonging to N#Cc1cnc2[nH]cc(C(=O)c3c(F)ccc(NS(=O)(=O)c4ccccc4)c3F)c2c1 and report it.
≤ 10 µM
